- Tested on: erythrocytes
- Protocol Details: Binding to erythrocytes: displacement of estradiol-3-sulfamate from the erythrocyte bond (RBA)
- Set-up: species or system human
- Experimental Context: human blood; displacement of 14C-labeled estradiol sulfamate; estradiol-3-sulfamate = 100
Quantity Kind: RBA in Erythrocytes
Just the number, please.

[[record]]
molecule = "COc1ccc(S(N)(=O)=O)cc1C(=O)O[C@H]1CC[C@H]2[C@@H]3CCC4=CC(=O)CC[C@]4(C)[C@H]3CC[C@]12C"
quantity_kind = "RBA in Erythrocytes"
readout_number = 0.8

[[record]]
molecule = "C[C@]12CC[C@H]3[C@@H](CCC4=CC(=O)CC[C@@]43C)[C@@H]1CC[C@@H]2OC(=O)c1ccc(S(N)(=O)=O)cc1"
quantity_kind = "RBA in Erythrocytes"
readout_number = 48

[[record]]
molecule = "C[C@]12CC[C@H]3[C@@H](CCC4=CC(=O)CC[C@@]43C)[C@@H]1CC[C@@H]2OC(=O)c1cc(S(N)(=O)=O)ccc1O"
quantity_kind = "RBA in Erythrocytes"
readout_number = 1.4


INPUT: Given C[C@]12CC[C@H]3[C@@H](CCC4=CC(=O)CC[C@@]43C)[C@@H]1CC[C@@H]2OC(=O)c1cccc(S(N)(=O)=O)c1 , state its recorded RBA in Erythrocytes.
OUTPUT: 1.3

INPUT: Given C[C@]12CC[C@H]3[C@@H](CCC4=CC(=O)CC[C@@H]43)[C@@H]1CC[C@@H]2OC(=O)c1ccc(S(N)(=O)=O)cc1 , state its recorded RBA in Erythrocytes.
OUTPUT: 24

INPUT: Given C[C@]12CC[C@H]3[C@@H](CCC4=CC(=O)CC[C@@]43C)[C@@H]1CC[C@@H]2OC(=O)CCc1ccc(S(N)(=O)=O)cc1 , state its recorded RBA in Erythrocytes.
OUTPUT: 3.4

INPUT: Given C[C@]12CC[C@@H]3c4ccc(OS(N)(=O)=O)cc4CC[C@H]3[C@@H]1CC[C@@H]2O [Estradiol-3-sulfamate, reference compound] , state its recorded RBA in Erythrocytes.
OUTPUT: 100

INPUT: Given C[C@@H]1CC2=CC(=O)CC[C@@H]2[C@H]2CC[C@]3(C)[C@@H](OC(=O)c4cccc(S(N)(=O)=O)c4)CC[C@H]3[C@@H]21 , state its recorded RBA in Erythrocytes.
OUTPUT: 2.1

Entry source: patent US20050282793A1
